Each recorded value in this set is attributed to paper PMC12511343.

Molecular target: T1, 4-Met substituted E. coli Cir (colicin Ia receptor), the paper's wildtype (WT) Cir (E. coli, UniProt P17315 26-663, W338 mutated to methionine | L343 mutated to methionine | F589 mutated to …)
T1 construct: Cir (colicin Ia receptor, TonB-dependent transporter), E. coli, mature coding region of cirA with four residues changed to methionine (4-Met); No TEV cleavage of Cir is described; also called apo-Cir; His-tagged Cir; not shown: His10, N-terminal, kept
T1 sequence (looked up): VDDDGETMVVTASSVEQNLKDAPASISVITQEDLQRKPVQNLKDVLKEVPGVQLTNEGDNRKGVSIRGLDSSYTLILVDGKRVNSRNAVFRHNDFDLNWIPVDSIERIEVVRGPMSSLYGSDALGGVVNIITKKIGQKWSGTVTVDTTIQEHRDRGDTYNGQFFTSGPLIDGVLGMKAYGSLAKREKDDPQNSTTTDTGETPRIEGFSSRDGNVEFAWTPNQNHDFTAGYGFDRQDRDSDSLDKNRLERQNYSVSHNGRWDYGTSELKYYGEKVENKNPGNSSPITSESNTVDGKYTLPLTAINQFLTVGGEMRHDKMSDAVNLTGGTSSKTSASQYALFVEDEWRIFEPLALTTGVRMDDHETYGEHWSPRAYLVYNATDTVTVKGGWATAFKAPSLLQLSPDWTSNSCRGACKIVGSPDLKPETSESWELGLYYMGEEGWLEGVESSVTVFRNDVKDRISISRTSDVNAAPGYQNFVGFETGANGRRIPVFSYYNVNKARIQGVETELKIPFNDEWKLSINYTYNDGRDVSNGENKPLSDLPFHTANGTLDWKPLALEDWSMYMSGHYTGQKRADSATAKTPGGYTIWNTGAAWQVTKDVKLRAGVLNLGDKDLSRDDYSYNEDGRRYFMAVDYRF
Assay: BLI; biotinylated MccV (100 nM) loaded on streptavidin SA-XT sensors, Cir in twofold dilutions 5 uM to 78 nM in PBS-T; 300 s association, 240 s dissociation; first 30 s of association and dissociation fit to a 1:1 global model
Conditions: both partners purified
metric name: pKd
Answers are plain numbers, as −log10 of the molar value.

Reported pKd ( Microcin V (MccV), mature, wildtype (natural protein, E. coli, UniProt P22522 16-103, looked up, biotinylated (EZ-Link Sulfo-NHS-LC kit) for BLI and ELISA; not labelled for cryo-EM and SV-AUC, Only residues 57-88 (mature numbering) were resolved in the map; also called WT MccV; Colicin V; source: E. coli BL21 (DE3), purified (HisTrap as His6-MBP fusion, TEV cleavage, second nickel column, flowthrough); not shown: His6, N-terminal, cleaved; MBP, N-terminal, cleaved) ASGRDIAMAIGTLSGQFVAGGIGAAAGGVAGGAIYDYASTHKPNPAMSPSGLGGTIKQKPEGIPSEAWNYAAGRLCNWSPNNLSDVCL ) = 6.81
